measured-on: Stromelysin-1 (Homo sapiens, UniProt P08254)
Sequence (P08254 whole entry): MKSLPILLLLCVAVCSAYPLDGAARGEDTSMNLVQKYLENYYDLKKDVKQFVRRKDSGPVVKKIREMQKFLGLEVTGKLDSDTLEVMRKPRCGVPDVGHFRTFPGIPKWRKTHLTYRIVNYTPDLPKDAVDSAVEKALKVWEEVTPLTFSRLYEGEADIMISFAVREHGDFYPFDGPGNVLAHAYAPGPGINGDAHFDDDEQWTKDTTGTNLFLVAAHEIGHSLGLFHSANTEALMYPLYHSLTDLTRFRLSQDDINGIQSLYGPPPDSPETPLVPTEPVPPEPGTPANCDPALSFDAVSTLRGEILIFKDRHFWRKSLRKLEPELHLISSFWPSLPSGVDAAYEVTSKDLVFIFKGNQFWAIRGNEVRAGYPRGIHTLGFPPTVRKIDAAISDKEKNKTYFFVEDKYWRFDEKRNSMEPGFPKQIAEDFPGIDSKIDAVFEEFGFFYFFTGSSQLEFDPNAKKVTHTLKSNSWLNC
procedure-summary: Inhibition of human MMP-3
measure-name: pIC50
Give only the number. pIC50 is defined as minus log10 of concentration in molar units.

Just so you know, measured pIC50 for `O=C(NCc1ccc(-c2ccccc2)cc1)c1occc(=O)c1O` came out at 7.11

* * *

procedure-summary: Inhibition of Pseudomonas aeruginosa Metallo-beta-lactamase VIM-2
measure-name: IC50 (nM)
Give the value, in units of nM, as a plain number.

Just so you know, measured IC50 for `[O-][n+]1ccccc1S` came out at 908

* * *

In what follows, each item is paired with its pIC50 for Acetylcholinesterase (Electrophorus electricus, UniProt O42275).
Give only the number. pIC50 is defined as minus log10 of concentration in molar units.

Answered cases to consult:
Cc1c(OCc2ccccc2)c(=O)ccn1-c1ccc(CC(=O)Nc2ccc(-c3nc4ccccc4s3)cc2)cc1 ... 4.83
Cc1c(OCc2ccccc2)c(=O)ccn1-c1ccc(CC(=O)Nc2ccc(Cc3nc4ccccc4s3)cc2)cc1 ... 4.83

Turning to the following compound.
Tested system Acetylcholinesterase (Electrophorus electricus, UniProt O42275); pIC50 recorded for `Cc1c(OCc2ccccc2)c(=O)ccn1CCCC(=O)Nc1ccc(Cc2nc3ccccc3s2)cc1` was 4.83

* * *

Recorded IC50 values for a group of compounds are listed next.
measured-on: Neutrophil collagenase (Homo sapiens, UniProt P22894)
Sequence (P22894 whole entry): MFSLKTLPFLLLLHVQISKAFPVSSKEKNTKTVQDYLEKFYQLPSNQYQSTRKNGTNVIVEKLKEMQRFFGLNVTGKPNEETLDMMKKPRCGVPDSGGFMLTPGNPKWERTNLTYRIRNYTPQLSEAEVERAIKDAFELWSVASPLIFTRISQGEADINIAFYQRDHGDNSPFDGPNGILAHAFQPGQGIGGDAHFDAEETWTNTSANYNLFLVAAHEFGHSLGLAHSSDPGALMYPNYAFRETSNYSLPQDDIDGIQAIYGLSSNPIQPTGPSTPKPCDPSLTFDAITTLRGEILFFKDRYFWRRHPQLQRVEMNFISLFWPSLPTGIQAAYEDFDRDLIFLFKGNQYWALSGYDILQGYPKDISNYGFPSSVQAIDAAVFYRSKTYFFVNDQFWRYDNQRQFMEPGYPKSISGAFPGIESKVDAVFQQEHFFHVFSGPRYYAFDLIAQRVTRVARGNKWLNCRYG
procedure-summary: Inhibition of human MMP-8
Please append the unit to your numeric answer.

Cn1ccc(=O)c(O)c1C(=O)NCc1ccc(-c2ccccc2)cc1 ... 1200 nM

Just so you know, measured IC50 for `Cc1cc(=O)c(O)c(C(=O)NCc2ccc(-c3ccccc3)cc2)o1` came out at 18 nM

Just so you know, measured IC50 for `O=C(NCc1ccc(-c2ccccc2)cc1)c1cccc(=O)n1O` came out at 18 nM

Just so you know, measured IC50 for `O=C(NCc1ccc(-c2ccccc2)cc1)c1occc(=O)c1O` came out at 18 nM

Just so you know, measured IC50 for `Cc1cc(=O)c(O)c(C(=O)NCc2ccc(-c3ccccc3)cc2)n1C` came out at 1200 nM

* * *

measured-on: Matrix metalloproteinase-9 (Homo sapiens, UniProt P14780)
Sequence (P14780 whole entry): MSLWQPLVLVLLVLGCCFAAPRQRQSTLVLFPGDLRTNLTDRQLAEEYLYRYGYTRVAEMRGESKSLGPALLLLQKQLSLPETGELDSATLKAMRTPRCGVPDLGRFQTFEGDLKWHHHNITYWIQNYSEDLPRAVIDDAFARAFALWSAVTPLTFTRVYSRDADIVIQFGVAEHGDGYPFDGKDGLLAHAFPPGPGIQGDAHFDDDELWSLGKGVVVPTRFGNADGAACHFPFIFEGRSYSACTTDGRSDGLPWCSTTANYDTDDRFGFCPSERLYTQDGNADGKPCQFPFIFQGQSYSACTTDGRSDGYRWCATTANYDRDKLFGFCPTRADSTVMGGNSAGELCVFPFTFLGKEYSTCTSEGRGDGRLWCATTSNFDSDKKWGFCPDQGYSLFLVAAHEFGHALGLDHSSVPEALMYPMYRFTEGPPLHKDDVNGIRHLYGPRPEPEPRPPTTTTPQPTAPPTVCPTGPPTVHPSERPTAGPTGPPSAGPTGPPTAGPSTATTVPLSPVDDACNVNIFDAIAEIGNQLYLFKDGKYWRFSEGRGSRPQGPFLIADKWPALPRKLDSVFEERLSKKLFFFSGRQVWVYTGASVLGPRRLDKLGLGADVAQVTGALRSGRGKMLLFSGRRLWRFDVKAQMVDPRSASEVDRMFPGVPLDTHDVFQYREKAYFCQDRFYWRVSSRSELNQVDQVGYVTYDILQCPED
procedure-summary: Inhibition of human MMP-9
measure-name: IC50 (µM)
Give the value, in units of µM, as a plain number.

Answered cases to consult:
Cc1cc(=O)c(O)c(C(=O)NCc2ccc(-c3ccccc3)cc2)o1 ... 25
O=C(NCc1ccc(-c2ccccc2)cc1)c1occc(=O)c1O ... 25
O=C(NCc1ccc(-c2ccccc2)cc1)c1cccc(=O)n1O ... 25
Cc1cc(=O)c(O)c(C(=O)NCc2ccc(-c3ccccc3)cc2)n1C ... 25

Turning to the following compound.
Tested system Matrix metalloproteinase-9 (Homo sapiens, UniProt P14780); IC50 recorded for `Cn1ccc(=O)c(O)c1C(=O)NCc1ccc(-c2ccccc2)cc1` was 25

* * *

measured-on: Stromelysin-1 (Homo sapiens, UniProt P08254)
procedure-summary: Inhibition of MMP-3 (unknown origin) by fluorescence based assay
measure-name: IC50 (µM)
Give the value, in units of µM, as a plain number.

Just so you know, measured IC50 for `[O-][n+]1ccccc1S` came out at 35

These data points were gathered from ChEMBL document CHEMBL5241119.
